# Target Desc: XIAP BIR3 (Homo sapiens)
# Construct: 6×histidine-tagged BIR2 (amino acids 124–240) or BIR3 (amino acids 241–356) domain of the XIAP protein
# Sequence (P98170 241-356): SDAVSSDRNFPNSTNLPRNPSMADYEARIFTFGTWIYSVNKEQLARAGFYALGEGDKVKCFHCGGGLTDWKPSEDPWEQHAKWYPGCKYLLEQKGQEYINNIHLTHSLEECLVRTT
# Assay Text: BIR3 TR-FRET assay (displacement of AVPI-derived peptide)
# Assay type: binding
Where a SMILES comes first, the peptide text is derived from it.
Endpoint Name: pKi
Numbers only, as −log10 of the molar value.

System XIAP BIR3 (Homo sapiens). Read-out pKi. Item CC[C@H](C)[C@H](NC(=O)[C@H](C)N)C(=O)N[C@@H](C)C(=O)N[C@H](C(=O)O)C(C)C [AIAV] (H-AIAV-OH) . Report value.
4.55

----------
# Target Desc: XIAP BIR2 (Homo sapiens, UniProt P98170)
# Construct: 6×histidine-tagged BIR2 (amino acids 124–240) or BIR3 (amino acids 241–356) domain of the XIAP protein
# Sequence (P98170 124-240): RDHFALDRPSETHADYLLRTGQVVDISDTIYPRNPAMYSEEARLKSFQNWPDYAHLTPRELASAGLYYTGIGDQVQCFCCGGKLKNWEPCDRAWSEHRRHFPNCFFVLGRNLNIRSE
# Assay Text: BIR2 TR-FRET assay (displacement of AVPI-derived peptide)
# Format: binding
# Condition Context: FRET-based displacement of AVPI-derived peptide from 6xHis BIR2 (124-240); Ki from IC50 by Cheng-Prusoff; read-out: BIR2 K i
Where a SMILES comes first, the peptide text is derived from it.
Endpoint Name: pKi
Give bare numbers, as −log10 of the molar value.

Below, 2 compounds whose answers are already recorded.
>  <Compound>
CC[C@H](C)[C@H](NC(=O)[C@@H]1CCCN1C(=O)[C@H](CCSC)NC(=O)[C@@H](N)CO)C(=O)O [SMPI] (H-SMPI-OH)

>  <pKi>
4.47

$$$$
>  <Compound>
C[C@H](N)C(=O)N[C@H](C(=O)N[C@@H](C)C(=O)N[C@@H](C)C(=O)O)[C@@H](C)O [ATAA] (H-ATAA-OH)

>  <pKi>
5.77

$$$$

Go through the list and state pKi for each entry.
1. CC(C)[C@H](NC(=O)[C@H](C)NC(=O)[C@@H](NC(=O)[C@H](C)N)C(C)C)C(=O)O [AVAV] (H-AVAV-OH)
2. CC(C)[C@H](NC(=O)[C@@H](NC(=O)[C@@H](NC(=O)[C@H](C)N)C(C)C)C(C)C)C(=O)O [AVVV] (H-AVVV-OH)
3. CC[C@H](C)[C@H](NC(=O)[C@@H]1CCCN1C(=O)[C@@H](NC(=O)[C@H](C)N)[C@@H](C)CC)C(=O)O [AIPI] (H-AIPI-OH)

[5.73, 5.60, 5.51]

----------
# Target Desc: XIAP BIR3 (Homo sapiens)
# Construct: 6×histidine-tagged BIR2 (amino acids 124–240) or BIR3 (amino acids 241–356) domain of the XIAP protein
# Assay Text: BIR3 TR-FRET assay (displacement of AVPI-derived peptide)
# Format: binding
# Condition Context: FRET-based displacement of AVPI-derived peptide from 6xHis BIR3 (241-356); Ki from IC50 by Cheng-Prusoff; read-out: BIR3 K i
# Procedure: Time-resolved fluorescence resonance energy transfer (TR-FRET) signals were measured 1 h later at room temperature. Compound potency was assessed at ten serially diluted concentrations. The percentage of inhibition at each concentration was determined to generate an IC50 value for each compound.
Where a SMILES comes first, the peptide text is derived from it.
Endpoint Name: pKi
Numbers only, as −log10 of the molar value.

>  <Compound>
CC(C)[C@H](NC(=O)[C@H](C)NC(=O)[C@@H](NC(=O)[C@H](C)N)C(C)C)C(=O)O [AVAV] (H-AVAV-OH)

>  <pKi>
4.58

$$$$
>  <Compound>
CC(C)[C@H](NC(=O)[C@H](C)NC(=O)[C@@H](NC(=O)[C@H](C)N)[C@@H](C)O)C(=O)O [ATAV] (H-ATAV-OH)

>  <pKi>
4.49

$$$$

Go through the list and state pKi for each entry.
1. CC[C@H](C)[C@H](NC(=O)[C@@H]1CCCN1C(=O)[C@H](CCSC)NC(=O)[C@@H](N)CO)C(=O)O [SMPI] (H-SMPI-OH)
2. CC[C@H](C)[C@H](NC(=O)[C@H](CCCNC(=N)N)NC(=O)[C@H](CCSC)NC(=O)[C@H](C)N)C(=O)O [AMRI] (H-AMRI-OH)
3. CC[C@H](C)[C@H](NC(=O)[C@@H]1CCCN1C(=O)[C@@H](NC(=O)[C@H](C)N)[C@@H](C)CC)C(=O)O [AIPI] (H-AIPI-OH)
4. CSCC[C@H](NC(=O)[C@H](C)N)C(=O)N[C@@H](CCCNC(=N)N)C(=O)N[C@H](C(=O)O)C(C)C [AMRV] (H-AMRV-OH)

1. 4.90
2. 5.28
3. 7.10
4. 4.48

----------
Please provide measured pKi for the entries that follow.
# Target Desc: XIAP BIR2 (Homo sapiens, UniProt P98170)
# Construct: 6×histidine-tagged BIR2 (amino acids 124–240) or BIR3 (amino acids 241–356) domain of the XIAP protein
# Assay Text: BIR2 TR-FRET assay (displacement of AVPI-derived peptide)
# Type: binding
# Condition Context: FRET-based displacement of AVPI-derived peptide from 6xHis BIR2 (124-240); Ki from IC50 by Cheng-Prusoff; read-out: BIR2 K i
# Protocol: Time-resolved fluorescence resonance energy transfer (TR-FRET) signals were measured 1 h later at room temperature. Compound potency was assessed at ten serially diluted concentrations. The percentage of inhibition at each concentration was determined to generate an IC50 value for each compound.
Where a SMILES comes first, the peptide text is derived from it.
One number for each entry, as −log10 of the molar value.

Go through the list and state pKi for each entry.
1. CSCC[C@H](NC(=O)[C@H](C)N)C(=O)N[C@@H](CCCNC(=N)N)C(=O)N[C@H](C(=O)O)C(C)C [AMRV] (H-AMRV-OH)
2. CSCC[C@H](NC(=O)[C@@H](N)CO)C(=O)N[C@@H](CCCNC(=N)N)C(=O)N[C@H](C(=O)O)C(C)C [SMRV] (H-SMRV-OH)

1: 5.62; 2: 4.91

Go through the list and state pKi for each entry.
1. CC[C@H](C)[C@H](NC(=O)[C@H](CCCNC(=N)N)NC(=O)[C@H](CCSC)NC(=O)[C@H](C)N)C(=O)O [AMRI] (H-AMRI-OH)
2. CC(C)[C@H](NC(=O)[C@H](C)NC(=O)[C@@H](NC(=O)[C@H](C)N)[C@@H](C)O)C(=O)O [ATAV] (H-ATAV-OH)

5.45
5.66

Just for reference, paper PMC3760131 is where these values come from.
